Experiment: Cytotoxicity in PHH natural infection assay (Cell Counting Kit-8)
Format: cell-based
Conditions: HBV-infected primary human hepatocytes, CCK8
Measured CC50 at 144 h accompanies every entry in the list below.
Measurement type: CC50 at 144 h

{"Compound": "Cc1cc(C(=O)NC2CCC3(CC2)CCN(c2nc4cc(Cl)ccc4o2)CC3)ccn1", "Measurement type": "CC50 at 144 h", "Result": "> 100 µM"}
{"Compound": "CC1(NC(=O)c2ccnc(C(F)(F)F)c2)CC2(CN(c3nc4cc(Cl)ccc4o3)C2)C1", "Measurement type": "CC50 at 144 h", "Result": "86.9 µM"}
{"Compound": "O=C(NC1CC2(C1)CN(c1nc3cc(Cl)ccc3o1)C2)C1CC1(F)F (centres unmarked)", "Measurement type": "CC50 at 144 h", "Result": "> 100 µM"}
{"Compound": "N=S(=O)(CC1CC1)c1ccc(C(=O)NC2CC3(C2)CN(c2nc4cc(Cl)ccc4o2)C3)o1 (centres unmarked)", "Measurement type": "CC50 at 144 h", "Result": "> 100 µM"}
{"Compound": "CC(C)(O)C(=O)NC1CC2(C1)CN(c1nc3cc(Cl)ccc3o1)C2", "Measurement type": "CC50 at 144 h", "Result": "> 100 µM"}
{"Compound": "CCOc1cc(C(=O)NC2CC3(C2)CN(c2nc4cc(Cl)ccc4o2)C3)ccn1", "Measurement type": "CC50 at 144 h", "Result": "> 100 µM"}
{"Compound": "CC1(C(=O)NC2CCC3(CC2)CCN(c2nc4cc(Cl)ccc4o2)CC3)CCS(=O)(=O)C1 (centres unmarked)", "Measurement type": "CC50 at 144 h", "Result": "> 100 µM"}
{"Compound": "O=C(NC1CCN(c2nc3cc(Cl)ccc3o2)CC1)c1ccc(C(F)(F)F)o1", "Measurement type": "CC50 at 144 h", "Result": "> 100 µM"}
{"Compound": "O=C(NC1CCC2(CC1)CCN(c1nc3ccc(Cl)cc3o1)CC2)C1CS(=O)(=O)C1", "Measurement type": "CC50 at 144 h", "Result": "88.1 µM"}
{"Compound": "O=C(NC1CC2CN(c3nc4cc(Cl)ccc4o3)CC2C1)C1CCS(=O)(=O)C1 (centres unmarked)", "Measurement type": "CC50 at 144 h", "Result": "> 100 µM"}
{"Compound": "O=C(NC1CCC2(CC1)CCN(c1nc3cc(Cl)ccc3o1)CC2)c1ccc([S+]([O-])CC2CC2)o1 (centres unmarked)", "Measurement type": "CC50 at 144 h", "Result": "94.8 µM"}
{"Compound": "O=C(NC1CCC2(CC1)CCN(c1nc3cc(Cl)ccc3o1)CC2)C1CS(=O)(=O)C1", "Measurement type": "CC50 at 144 h", "Result": "28.9 µM"}
{"Compound": "CS(=O)(=O)c1ccc(C(=O)NC2CC3(C2)CN(c2nc4cc(Cl)cnc4o2)C3)o1", "Measurement type": "CC50 at 144 h", "Result": "> 100 µM"}
{"Compound": "CS(=O)(=O)c1cc(C(=O)NC2CC3(C2)CN(c2nc4cc(Cl)ccc4o2)C3)ccn1", "Measurement type": "CC50 at 144 h", "Result": "> 100 µM"}
{"Compound": "O=C(CCC(F)(F)F)NC1CC2(C1)CN(c1nc3cc(Cl)ccc3o1)C2", "Measurement type": "CC50 at 144 h", "Result": "> 100 µM"}
{"Compound": "CS(=O)(=O)N1CC(CC(=O)NCC2CCN(c3nc4cc(Cl)ccc4o3)CC2)C1", "Measurement type": "CC50 at 144 h", "Result": "> 10 µM"}
{"Compound": "O=C(NC1CCC2(CC1)CCN(c1nc3cc(Cl)ccc3o1)CC2)C1CC2(C1)CS(=O)(=O)C2", "Measurement type": "CC50 at 144 h", "Result": "> 100 µM"}
{"Compound": "CC1(NC(=O)c2ccc(S(C)(=O)=O)o2)CC2(CN(c3nc4cc(Cl)ccc4o3)C2)C1", "Measurement type": "CC50 at 144 h", "Result": "> 100 µM"}
{"Compound": "CS(=O)(=O)Cc1ccc(C(=O)NC2CC3(C2)CN(c2nc4cc(Cl)ccc4o2)C3)o1", "Measurement type": "CC50 at 144 h", "Result": "> 100 µM"}
{"Compound": "CC1(C(=O)NC2CCC3(CC2)CCN(c2nc4cc(Cl)ccc4o2)CC3)CC[S+]([O-])CC1 (centres unmarked)", "Measurement type": "CC50 at 144 h", "Result": "> 100 µM"}
{"Compound": "CC1(C(=O)NC2CC3(C2)CN(c2nc4cc(Cl)ccc4o2)C3)CCS(=O)(=O)C1 (centres unmarked)", "Measurement type": "CC50 at 144 h", "Result": "> 100 µM"}
{"Compound": "CS(=O)(=O)N1CCC(C(=O)NCC2CCN(c3nc4cc(Cl)ccc4o3)CC2)CC1", "Measurement type": "CC50 at 144 h", "Result": "> 10 µM"}
{"Compound": "CCS(=N)(=O)c1ccc(C(=O)NC2CCC3(CC2)CCN(c2nc4cc(Cl)ccc4o2)CC3)o1 (centres unmarked)", "Measurement type": "CC50 at 144 h", "Result": "93.3 µM"}
{"Compound": "C[S+]([O-])c1ccc(C(=O)NC2CC3(C2)CN(c2nc4cc(Cl)ccc4o2)C3)o1 (centres unmarked)", "Measurement type": "CC50 at 144 h", "Result": "> 100 µM"}
{"Compound": "O=C(NC1CC2(C1)CN(c1nc3cc(Cl)ccc3o1)C2)C1CCS(=O)(=O)C1 (centres unmarked)", "Measurement type": "CC50 at 144 h", "Result": "> 100 µM"}
{"Compound": "O=C(NC1CCC2(CC1)CCN(c1nc3cc(Cl)ccc3o1)CC2)c1ccnc(S(=O)(=O)C2CC2)c1", "Measurement type": "CC50 at 144 h", "Result": "> 10 µM"}
{"Compound": "O=C(NC1CC2(C1)CN(c1nc3cc(Cl)ccc3o1)C2)c1ccnc(C(F)(F)F)c1", "Measurement type": "CC50 at 144 h", "Result": "71.1 µM"}
{"Compound": "O=C(NC1CCC2(CC1)CCN(c1nc3ccc(Cl)cc3o1)CC2)C1CCS(=O)(=O)CC1", "Measurement type": "CC50 at 144 h", "Result": "> 100 µM"}
{"Compound": "O=C(NC1CCC2(CC1)CCN(c1nc3cc(Cl)ccc3o1)CC2)c1ccc(S(=O)(=O)NC(=O)C2CCC2)o1", "Measurement type": "CC50 at 144 h", "Result": "85.7 µM"}
{"Compound": "CCOC(=O)NC1CC2(C1)CN(c1nc3cc(Cl)ccc3o1)C2", "Measurement type": "CC50 at 144 h", "Result": "> 100 µM"}
{"Compound": "CS(=O)(=O)CCC(=O)NC1CCC2(CC1)CCN(c1nc3cc(Cl)ccc3o1)CC2", "Measurement type": "CC50 at 144 h", "Result": "98.6 µM"}
{"Compound": "CC(C)(C)C(=O)NC1CC2(C1)CN(c1nc3cc(Cl)ccc3o1)C2", "Measurement type": "CC50 at 144 h", "Result": "> 100 µM"}
